These entries and their values trace back to patent US20260250278A1.

experimental.system: UniProt P08684
Sequence (P08684 2-503 limits assumed): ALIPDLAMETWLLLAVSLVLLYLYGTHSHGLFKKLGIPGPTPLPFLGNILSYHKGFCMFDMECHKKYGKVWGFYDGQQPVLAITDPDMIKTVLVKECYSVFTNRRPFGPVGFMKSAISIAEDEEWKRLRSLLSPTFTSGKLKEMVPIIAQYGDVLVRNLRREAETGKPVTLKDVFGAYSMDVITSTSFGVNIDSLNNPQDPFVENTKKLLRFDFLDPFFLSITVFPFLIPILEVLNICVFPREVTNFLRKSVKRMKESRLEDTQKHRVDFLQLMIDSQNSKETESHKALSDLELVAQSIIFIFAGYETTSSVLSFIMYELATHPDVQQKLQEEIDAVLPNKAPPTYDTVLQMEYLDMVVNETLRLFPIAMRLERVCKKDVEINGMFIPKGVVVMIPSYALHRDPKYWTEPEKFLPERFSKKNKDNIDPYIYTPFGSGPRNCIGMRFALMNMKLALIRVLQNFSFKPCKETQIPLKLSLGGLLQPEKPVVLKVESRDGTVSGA
protocol.details: biochemical
Type: in vitro ADME
applied.conditions: CYP3A4-5T IC50, human CYP3A4, CYP3A4-5T
Quick reference for IC50 among some compounds
I'd appreciate it if you wrote the number followed by its unit.

For orientation, consider the following solved cases.
>>> data_value("CCOc1ncc(C)c2c1[C@H](c1ccc(C#N)c3c1OCO3)C(C(N)=O)=C(C)N2")
"5.35 µM"
>>> data_value("CCOc1ncc(C)c2c1[C@H](c1ccc(C#N)cc1OC)C(C(N)=O)=C(C)N2 [Finerenone, reference compound]")
"8.02 µM"

Please turn your attention to the following entry.
Look up IC50 for this compound: `CCOc1ncc(C)c2c1[C@H](c1ccc(C#N)c3c1OCC3)C(C(N)=O)=C(C)N2` 15.8 µM

###

Quick reference for half-life among some compounds
protocol.details: Pharmacokinetic test of rats (intravenous and intragastric administration)
Format: in vivo
applied.conditions: rat, plasma; SD rats, intravenous 1 mg/kg
Description: This experiment was intended to evaluate a pharmacokinetic behavior of an implementing compound after intravenous injection or intragastric administration in the rats. […] A concentration of the test compound in the plasma was determined by high-performance liquid chromatography-tandem mass spectrometry (LC-MS/MS). […]

>>> data_value("CCOc1ncc(C)c2c1[C@H](c1ccc(C#N)c3c1OCO3)C(C(N)=O)=C(C)N2")
"10.1 h"

Look up half-life for this compound: CCOc1ncc(C)c2c1[C@H](c1ccc(C#N)cc1OC)C(C(N)=O)=C(C)N2 [Finerenone, reference compound] 9.62 h

Look up half-life for this compound: `CCOc1ncc(C)c2c1[C@H](c1ccc(C#N)c3c1OCC3)C(C(N)=O)=C(C)N2` 12.1 h

###

protocol.details: Pharmacokinetic test of mice (intravenous administration)
Type: in vivo
applied.conditions: mouse, plasma; CD1 mice, intravenous 1 mg/kg
reported.property: AUC(0-t)
I'd appreciate it if you wrote the number followed by its unit.

For orientation, consider the following solved cases.
>>> data_value("CCOc1nc2ccsc2c2c1[C@H](c1ccc(C#N)cc1OC)C(C(N)=O)=C(C)N2")
"2.55 µg·h/mL"
>>> data_value("CCOc1ncc(C)c2c1[C@H](c1ccc(C#N)c3c1OCC3)C(C(N)=O)=C(C)N2")
"206 µg·h/mL"
>>> data_value("CCOc1ncc(C)c2c1[C@H](c1ccc(C#N)cc1OC)C(C(N)=O)=C(C)N2 [Finerenone, reference compound]")
"142 µg·h/mL"

Please turn your attention to the following entry.
Look up AUC(0-t) for this molecule: `CCOc1ncc(C)c2c1[C@H](c1ccc(C#N)c3c1OCO3)C(C(N)=O)=C(C)N2` 201 µg·h/mL

###

protocol.details: Pharmacokinetic test of rats (intravenous and intragastric administration)
Assay type: in vivo
applied.conditions: rat, plasma; SD rats, intragastric and oral administration 5 mg/kg
Quick reference for AUC(0-t) among some compounds
Report only the number, with the unit µg·h/mL understood.

For orientation, consider the following solved cases.
>>> data_value("CCOc1ncc(C)c2c1[C@H](c1ccc(C#N)cc1OC)C(C(N)=O)=C(C)N2 [Finerenone, reference compound]")
307
>>> data_value("CCOc1ncc(C)c2c1[C@H](c1ccc(C#N)c3c1OCO3)C(C(N)=O)=C(C)N2 [Example 62]")
361

Look up AUC(0-t) for this compound: CCOc1ncc(C)c2c1[C@H](c1ccc(C#N)c3c1OCC3)C(C(N)=O)=C(C)N2 [Example 36] 365
